Parameter: self-cleavage kobs at 160 uM GlcN6P. Scope: all listed entries.
B1: glmS ribozyme (parent)
chain: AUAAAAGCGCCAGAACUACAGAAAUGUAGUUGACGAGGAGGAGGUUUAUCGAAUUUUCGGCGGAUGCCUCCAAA

variants of: B1; assay: self-cleavage kobs at 160 uM GlcN6P; higher = faster cleavage; RNA array; details: with glucosamine-6-phosphate
Fewer inactive variants are shown than the library holds.
Numeric only. Scale: s⁻¹

Reference set (2 entries):
VARIANT	VAL
G51U C61G C71G	0.000101
G32A U56G	9.78e-05

Next variant, please.
// query self-cleavage kobs at 160 uM GlcN6P value for entry G43C A53G C68U 0.000102
